Property Measured: MDR1-MDCK efflux ratio

- Compound: "O=C(c1ccc(Oc2ccccc2)cc1Cl)c1c[nH]c2ncnc(N[C@@H]3CC[C@@H](CO)OC3)c12"
  MDR1-MDCK efflux ratio: 6.8
- Compound: "CCOc1ccc(C(=O)Nc2cnn(C3CCOCC3)c2)cn1"
  MDR1-MDCK efflux ratio: 1.41
- Compound: "O=C(c1cc(-c2ccc(F)cc2)on1)N1CC[C@H](Oc2ccccc2F)[C@@H](O)CC1"
  MDR1-MDCK efflux ratio: 0.861
- Compound: "N#Cc1ccccc1N1CCC(N)CC1"
  MDR1-MDCK efflux ratio: 0.562
- Compound: "O=c1ncn2nc(Sc3ccc(F)cc3F)ccc2c1-c1c(Cl)cccc1Cl"
  MDR1-MDCK efflux ratio: 8.01
- Compound: "COc1ncccc1C(=O)Nc1nc(C)nn1C"
  MDR1-MDCK efflux ratio: 0.585
- Compound: "CC1(C)CC(CC(=O)NCCn2ccnn2)CC(C)(C)N1"
  MDR1-MDCK efflux ratio: 0.186
- Compound: "CN(C)C1(CNC(=O)Cn2ccc(=O)cc2)CCCCC1"
  MDR1-MDCK efflux ratio: 0.273

[P] CCc1nnc(N2CC(N(C)C)C2)c(C#N)c1CC
[Q] Cc1cccc(-n2cnnc2CCCN2CCOCC2)c1
[R] Cc1nsc(Nc2ccccc2)c1C#N
Please list these compounds in decreasing order of MDR1-MDCK efflux ratio. # format: label list in the order the request specifies Q, P, R
(Q: 30.5, P: 0.843, R: 0.367)

[1] COCC(=O)Nc1nc(C)c(C)s1
[2] CC(C)c1cccc(CN2C(=O)N(C)C3(CCCCC3)C2=O)n1
Min MDR1-MDCK efflux ratio? 1 | 2 Output the label that corresponds to your choice. 1
(1: 0.659, 2: 1.13)

[A] COC(C)(C)C(=O)Nc1ccnc(C(C)(C)C)n1
[B] c1cc2c(N3CCNCC3)nc(-c3ccnc(NC4CCCCC4)c3)cc2cn1
Could you tell me which of these two has the smaller MDR1-MDCK efflux ratio figure? First: A Second: B Label of pick, please. A

Each recorded value in this set is attributed to the Biogen ADME set (Fang et al. 2023).
